Test system: 425362-245-T-J1 tumor spheroids, viability % test/control
Experiment: Anticancer human tumor 425362-245-T-J1 patient-derived melanoma cell line growth inhibition
Conditions: second compound 31.6 µM; first compound 3.16 µM; stronger effect = lower value; spheroids with HUVEC and MSC
observed property: viability, T/C (%)
Please state the figure in %; there is no need to write the unit.

Dear colleague, I am looking for the recorded viability, T/C of the following compound: COc1ccc([C@@H](O)c2cc(-c3ncnc4cc(N5CCOCC5)ccc34)c(F)cc2Cl)nn1 + Cn1nnc2c(C(N)=O)ncn2c1=O 44

Dear colleague, I am looking for the recorded viability, T/C of the following compound: CC1COCCN1c1cc(-c2ccnn2C)c2ccnc(-c3ccn[nH]3)c2n1 (stereo unspecified) + Cn1nnc2c(C(N)=O)ncn2c1=O 8.57

Dear colleague, I am looking for the recorded viability, T/C of the following compound: [2H]c1nc(C)nc([2H])c1-c1cc(NC[C@@H](C)c2cccc3c(C(=O)NC)ccnc23)ncn1 + Cn1nnc2c(C(N)=O)ncn2c1=O 101

Dear colleague, I am looking for the recorded viability, T/C of the following compound: Cc1cc(C)c(CNC(=O)c2cc(-c3ccc(CN4CCOCC4)cc3)cc3c2cnn3C2CCCC2)c(=O)[nH]1 + Cn1nnc2c(C(N)=O)ncn2c1=O 49.3

Dear colleague, I am looking for the recorded viability, T/C of the following compound: COc1cc(C)[nH]c(=O)c1CN1CCc2c(Cl)cc(C(OC)C3COC3)c(Cl)c2C1=O (stereo unspecified) + Cn1nnc2c(C(N)=O)ncn2c1=O 89

Dear colleague, I am looking for the recorded viability, T/C of the following compound: CC(C)n1c(=O)n(C)c2cnc3cc(F)c(-c4ccc(OCCCN5CCCCC5)nc4)cc3c21 + Cn1nnc2c(C(N)=O)ncn2c1=O 14.5

###

System: 425362-245-T-J1 tumor spheroids, viability % test/control
Test: Anticancer human tumor 425362-245-T-J1 cell line growth inhibition; active = viability on the fitted dose curve at most 10% of control; inactive = the rest;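 note: spheroids exposed to agents for 7 days; 100% = DMSO vehicle control viability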
Settings: second compound 30 pM; first compound 10 µM; spheroids with HUVEC and MSC
Pick one and only one: 1.0 (active), 0.0 (inactive)

I would be grateful if you could indicate the recorded call for CC1COCCN1c1cc(-c2ccnn2C)c2ccnc(-c3ccn[nH]3)c2n1 (stereo unspecified) + COc1cc2c(cc1O)CCNC21CSC2c3c(OC(C)=O)c(C)c4c(c3C(COC1=O)N1C(O)C3Cc5cc(C)c(OC)c(O)c5C(C21)N3C)OCO4 . 1.0

I would be grateful if you could indicate the recorded call for CC(C)n1c(=O)n(C)c2cnc3cc(F)c(-c4ccc(OCCCN5CCCCC5)nc4)cc3c21 + COc1cc2c(cc1O)CCNC21CSC2c3c(OC(C)=O)c(C)c4c(c3C(COC1=O)N1C(O)C3Cc5cc(C)c(OC)c(O)c5C(C21)N3C)OCO4 . 1.0

I would be grateful if you could indicate the recorded call for [2H]c1nc(C)nc([2H])c1-c1cc(NC[C@@H](C)c2cccc3c(C(=O)NC)ccnc23)ncn1 + COc1cc2c(cc1O)CCNC21CSC2c3c(OC(C)=O)c(C)c4c(c3C(COC1=O)N1C(O)C3Cc5cc(C)c(OC)c(O)c5C(C21)N3C)OCO4 . 0.0

I would be grateful if you could indicate the recorded call for COc1ccc([C@@H](O)c2cc(-c3ncnc4cc(N5CCOCC5)ccc34)c(F)cc2Cl)nn1 + COc1cc2c(cc1O)CCNC21CSC2c3c(OC(C)=O)c(C)c4c(c3C(COC1=O)N1C(O)C3Cc5cc(C)c(OC)c(O)c5C(C21)N3C)OCO4 . 0.0

I would be grateful if you could indicate the recorded call for COc1cc(C)[nH]c(=O)c1CN1CCc2c(Cl)cc(C(OC)C3COC3)c(Cl)c2C1=O (stereo unspecified) + COc1cc2c(cc1O)CCNC21CSC2c3c(OC(C)=O)c(C)c4c(c3C(COC1=O)N1C(O)C3Cc5cc(C)c(OC)c(O)c5C(C21)N3C)OCO4 . 0.0

I would be grateful if you could indicate the recorded call for Cc1cc(C)c(CNC(=O)c2cc(-c3ccc(CN4CCOCC4)cc3)cc3c2cnn3C2CCCC2)c(=O)[nH]1 + COc1cc2c(cc1O)CCNC21CSC2c3c(OC(C)=O)c(C)c4c(c3C(COC1=O)N1C(O)C3Cc5cc(C)c(OC)c(O)c5C(C21)N3C)OCO4 . 0.0

###

Test system: 425362-245-T-J1 tumor spheroids, viability % test/control
Test: Anticancer human tumor 425362-245-T-J1 cell line growth inhibition;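 note: spheroids exposed to agents for 7 days; 100% = DMSO vehicle control viability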
Conditions: second compound 0.003 µM; first compound 0.1 µM; stronger effect = lower value; spheroids with HUVEC and MSC
Provide the recorded viability, T/C for the entries that follow.
Please state the figure in %; there is no need to write the unit.

Dear colleague, I am looking for the recorded viability, T/C of the following compound: COc1ccc([C@@H](O)c2cc(-c3ncnc4cc(N5CCOCC5)ccc34)c(F)cc2Cl)nn1 + COc1cc2c(cc1O)CCNC21CSC2c3c(OC(C)=O)c(C)c4c(c3C(COC1=O)N1C(O)C3Cc5cc(C)c(OC)c(O)c5C(C21)N3C)OCO4 0.35

Dear colleague, I am looking for the recorded viability, T/C of the following compound: COc1cc(C)[nH]c(=O)c1CN1CCc2c(Cl)cc(C(OC)C3COC3)c(Cl)c2C1=O (centres undefined) + COc1cc2c(cc1O)CCNC21CSC2c3c(OC(C)=O)c(C)c4c(c3C(COC1=O)N1C(O)C3Cc5cc(C)c(OC)c(O)c5C(C21)N3C)OCO4 0.38

Dear colleague, I am looking for the recorded viability, T/C of the following compound: COc1cc(C)[nH]c(=O)c1CN1CCc2c(Cl)cc(C(OC)C3COC3)c(Cl)c2C1=O (centres undefined) + CC[C@@]1(O)C(=O)OCc2c1cc1n(c2=O)Cc2cc3c(CN(C)C)c(O)ccc3nc2-1 102

Dear colleague, I am looking for the recorded viability, T/C of the following compound: CC1COCCN1c1cc(-c2ccnn2C)c2ccnc(-c3ccn[nH]3)c2n1 (centres undefined) + COc1cc2c(cc1O)CCNC21CSC2c3c(OC(C)=O)c(C)c4c(c3C(COC1=O)N1C(O)C3Cc5cc(C)c(OC)c(O)c5C(C21)N3C)OCO4 0.6

###

System: 425362-245-T-J1 tumor spheroids, viability % test/control
Experiment: Anticancer human tumor 425362-245-T-J1 cell line growth inhibition; active means viability on the fitted dose curve at most 10% of control; inactive means the rest;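 note: spheroids exposed to agents for 7 days; 100% = DMSO vehicle control viability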
Conditions: second compound 0.03 µM; first compound 1 µM; spheroids with HUVEC and MSC
Pick one and only one: Yes = active, No = inactive

I would be grateful if you could indicate the recorded call for COc1cc(C)[nH]c(=O)c1CN1CCc2c(Cl)cc(C(OC)C3COC3)c(Cl)c2C1=O (stereo unspecified) + CC[C@@]1(O)C(=O)OCc2c1cc1n(c2=O)Cc2cc3c(CN(C)C)c(O)ccc3nc2-1 . No

I would be grateful if you could indicate the recorded call for COc1ccc([C@@H](O)c2cc(-c3ncnc4cc(N5CCOCC5)ccc34)c(F)cc2Cl)nn1 + CC[C@@]1(O)C(=O)OCc2c1cc1n(c2=O)Cc2cc3c(CN(C)C)c(O)ccc3nc2-1 . No

I would be grateful if you could indicate the recorded call for [2H]c1nc(C)nc([2H])c1-c1cc(NC[C@@H](C)c2cccc3c(C(=O)NC)ccnc23)ncn1 + CC[C@@]1(O)C(=O)OCc2c1cc1n(c2=O)Cc2cc3c(CN(C)C)c(O)ccc3nc2-1 . No

I would be grateful if you could indicate the recorded call for Cc1cc(C)c(CNC(=O)c2cc(-c3ccc(CN4CCOCC4)cc3)cc3c2cnn3C2CCCC2)c(=O)[nH]1 + CC[C@@]1(O)C(=O)OCc2c1cc1n(c2=O)Cc2cc3c(CN(C)C)c(O)ccc3nc2-1 . No

I would be grateful if you could indicate the recorded call for CC1COCCN1c1cc(-c2ccnn2C)c2ccnc(-c3ccn[nH]3)c2n1 (stereo unspecified) + CC[C@@]1(O)C(=O)OCc2c1cc1n(c2=O)Cc2cc3c(CN(C)C)c(O)ccc3nc2-1 . Yes

I would be grateful if you could indicate the recorded call for CC(C)n1c(=O)n(C)c2cnc3cc(F)c(-c4ccc(OCCCN5CCCCC5)nc4)cc3c21 + CC[C@@]1(O)C(=O)OCc2c1cc1n(c2=O)Cc2cc3c(CN(C)C)c(O)ccc3nc2-1 . Yes

###

System: 425362-245-T-J1 tumor spheroids, viability % test/control
Test: Anticancer human tumor 425362-245-T-J1 cell line growth inhibition; active means viability on the fitted dose curve at most 10% of control; inactive means the rest;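 note: spheroids exposed to agents for 7 days; 100% = DMSO vehicle control viability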
Details: second compound 100 µM; first compound 0.949 µM; spheroids with HUVEC and MSC
Pick one and only one: 1 (active), -1 (inactive)

I would be grateful if you could indicate the recorded call for Cn1ncnc1[C@H]1c2n[nH]c(=O)c3cc(F)cc(c23)N[C@@H]1c1ccc(F)cc1 + Cn1nnc2c(C(N)=O)ncn2c1=O . 1

I would be grateful if you could indicate the recorded call for Cc1sc2c(c1C)C(c1ccc(Cl)cc1)=NC(CC(=O)Nc1ccc(O)cc1)c1nnc(C)n1-2 (centres undefined) + Cn1nnc2c(C(N)=O)ncn2c1=O . 1

I would be grateful if you could indicate the recorded call for O=C(c1cc(Cc2n[nH]c(=O)c3ccccc23)ccc1F)N1CCN(C(=O)C2CC2)CC1 + Cn1nnc2c(C(N)=O)ncn2c1=O . -1

I would be grateful if you could indicate the recorded call for CNCc1ccc(-c2cc(-c3nc(-c4ccc(S(=O)(=O)C(C)C)cc4)cnc3N)on2)cc1 + Cn1nnc2c(C(N)=O)ncn2c1=O . 1
